Origin of the recorded values: PubChem BioAssay AID1628

# Lookup of reported z-score keyed by entry
assay: decrease of insulin promoter-GFP reporter – imaging, high-content screening, mouse beta cells (AID 1628); settings: MIN6 insulin promoter GFP reporter, at 5 µM, stronger effect = lower value
Hit rate of the full screen: of about 190,000 compounds, about 930 (0.49%) were called active. Some of the results follow. Entries with a potency or affinity are not part of this list.
MEASUREMENT KIND: z-score

>  <COMPOUND>
Cc1nc2c(c(=O)n1Cc1ccccc1Cl)c1nc3ccccc3nc1n2Cc1ccco1

>  <MEASUREMENT KIND>
z-score

>  <READOUT VALUE>
-5.21

$$$$
>  <COMPOUND>
COC(=O)c1cccc(N2C(=O)c3cccnc3C2=O)c1

>  <MEASUREMENT KIND>
z-score

>  <READOUT VALUE>
0.1

$$$$
>  <COMPOUND>
Cc1ccc(C(=O)SC2=NCCS2)cc1

>  <MEASUREMENT KIND>
z-score

>  <READOUT VALUE>
1.97

$$$$
>  <COMPOUND>
COc1ccc(C2C(C(=O)c3ccccc3)=C(C)Nc3nc4ccccc4n32)c(OC)c1 (stereo unspecified)

>  <MEASUREMENT KIND>
z-score

>  <READOUT VALUE>
3.79

$$$$
>  <COMPOUND>
Cc1cccn2c(=O)c(/C=C3\SC(=S)N(CC(C)C)C3=O)c(NCCCOC(C)C)nc12

>  <MEASUREMENT KIND>
z-score

>  <READOUT VALUE>
12.1

$$$$
>  <COMPOUND>
COc1ccccc1Nc1nc(Cl)c(C=O)s1

>  <MEASUREMENT KIND>
z-score

>  <READOUT VALUE>
3.19

$$$$
>  <COMPOUND>
COc1cc(OC)cc(-c2cc3nc4c(c(N5CCN(c6ncccn6)CC5)n3n2)CCCC4)c1

>  <MEASUREMENT KIND>
z-score

>  <READOUT VALUE>
-3.61

$$$$
>  <COMPOUND>
Cc1[nH]n(-c2ccc([N+](=O)[O-])cc2)c(=O)c1C=NCCN1CCN(C(=O)c2ccccc2F)CC1

>  <MEASUREMENT KIND>
z-score

>  <READOUT VALUE>
4.48

$$$$
>  <COMPOUND>
CCCOC(=O)C1=C(C)NC2=C(C(=O)CCC2)C1c1cccc(OC)c1OC (stereo unspecified)

>  <MEASUREMENT KIND>
z-score

>  <READOUT VALUE>
-0.62

$$$$
>  <COMPOUND>
COc1ccc(CC(=S)N2CCOCC2)cc1

>  <MEASUREMENT KIND>
z-score

>  <READOUT VALUE>
-4.87

$$$$
>  <COMPOUND>
O=C1c2cccc3c(O)ccc(c23)C(=O)N1Cc1ccco1

>  <MEASUREMENT KIND>
z-score

>  <READOUT VALUE>
12.8

$$$$
>  <COMPOUND>
CCOC(=O)COc1ccc(C(=O)NC2CCCCC2)cc1

>  <MEASUREMENT KIND>
z-score

>  <READOUT VALUE>
4.25

$$$$
>  <COMPOUND>
COc1ccc2nc3ccccc3nc2c1

>  <MEASUREMENT KIND>
z-score

>  <READOUT VALUE>
-1.09

$$$$
>  <COMPOUND>
N#C/C(=C/c1ccc(N2CCOCC2)o1)c1nc2ccccc2[nH]1

>  <MEASUREMENT KIND>
z-score

>  <READOUT VALUE>
15

$$$$
>  <COMPOUND>
COCCn1c(CN2CCN(c3ccc(OC)cc3)CC2)nc2c1c(=O)n(C)c(=O)n2C

>  <MEASUREMENT KIND>
z-score

>  <READOUT VALUE>
-7.6

$$$$
>  <COMPOUND>
C=CCn1c(-c2csc(-c3ccc(OC)c(OC)c3)n2)n[nH]c1=S

>  <MEASUREMENT KIND>
z-score

>  <READOUT VALUE>
-3.05

$$$$
>  <COMPOUND>
N#C/C(=C/c1ccc(-c2ccccc2)o1)c1nc(-c2cccs2)cs1

>  <MEASUREMENT KIND>
z-score

>  <READOUT VALUE>
14.7

$$$$
>  <COMPOUND>
NS(=O)(=O)c1cccc2cccnc12

>  <MEASUREMENT KIND>
z-score

>  <READOUT VALUE>
5.52

$$$$
>  <COMPOUND>
COc1cc(C(=O)Oc2ccccc2/C=N/NC(=O)c2ccc(C)c(Cl)c2)cc(OC)c1OC

>  <MEASUREMENT KIND>
z-score

>  <READOUT VALUE>
-5.2

$$$$
>  <COMPOUND>
O=C(CSc1ccccn1)Nc1cccc2ccccc12

>  <MEASUREMENT KIND>
z-score

>  <READOUT VALUE>
2.55

$$$$
>  <COMPOUND>
C(=N\Nc1nc(-c2ccccn2)nc2ccccc12)/c1ccccc1

>  <MEASUREMENT KIND>
z-score

>  <READOUT VALUE>
-3.55

$$$$
>  <COMPOUND>
Cc1oc(C)c2c(=O)ccc3c(c12)OC(N)=C(C#N)C3c1ccc(F)cc1 (stereo unspecified)

>  <MEASUREMENT KIND>
z-score

>  <READOUT VALUE>
3.56

$$$$
>  <COMPOUND>
CCOC(=O)c1sc2cc([N+](=O)[O-])cc(SCC(C)C)c2c1N

>  <MEASUREMENT KIND>
z-score

>  <READOUT VALUE>
13.9

$$$$
>  <COMPOUND>
CCc1c(C)nc2ncnn2c1N1CCC(C(=O)N2CCN(c3ccc(F)cc3)CC2)CC1

>  <MEASUREMENT KIND>
z-score

>  <READOUT VALUE>
-3.04

$$$$
>  <COMPOUND>
Cc1nn(C)cc1N1C(=O)c2cccc3c(N)ccc(c23)C1=O

>  <MEASUREMENT KIND>
z-score

>  <READOUT VALUE>
5.94

$$$$
>  <COMPOUND>
COc1ccc(C(=S)N2CCCC2)cc1

>  <MEASUREMENT KIND>
z-score

>  <READOUT VALUE>
0.82

$$$$
>  <COMPOUND>
COC(=O)c1ccnc(SCC(=O)c2ccccc2)c1

>  <MEASUREMENT KIND>
z-score

>  <READOUT VALUE>
-3.59

$$$$
>  <COMPOUND>
Cn1cc(/C=C2\SC(=S)N(NC(=O)c3ccccc3Cl)C2=O)c2ccccc21

>  <MEASUREMENT KIND>
z-score

>  <READOUT VALUE>
7

$$$$
>  <COMPOUND>
O=C(CN1CCN(Cc2ccc(Cl)cc2)C1=O)NCCCN1CCN(c2ccc(F)cc2)CC1

>  <MEASUREMENT KIND>
z-score

>  <READOUT VALUE>
-4.01

$$$$
>  <COMPOUND>
COc1cc2c3nnc(-c4ccc(F)cc4)c-3cn(Cc3ccc(F)cc3)c2cc1OC

>  <MEASUREMENT KIND>
z-score

>  <READOUT VALUE>
6.06

$$$$
>  <COMPOUND>
COC(=O)Cc1c(C)nc2nc(NCc3ccccc3OC)[nH]n2c1=O

>  <MEASUREMENT KIND>
z-score

>  <READOUT VALUE>
4.27

$$$$
>  <COMPOUND>
Cc1ccc(C2C3CN(C(C)C)CC=C3C(C#N)=C(N)C2(C#N)C#N)cc1 (stereo unspecified)

>  <MEASUREMENT KIND>
z-score

>  <READOUT VALUE>
10.3

$$$$
>  <COMPOUND>
CCOc1cccc(NC(=O)Cc2cccs2)c1

>  <MEASUREMENT KIND>
z-score

>  <READOUT VALUE>
-3.39

$$$$
>  <COMPOUND>
COc1ccc(C(=O)CSC2=C(C#N)C3(CCCCC3)C(C#N)=C(N)N2)cc1

>  <MEASUREMENT KIND>
z-score

>  <READOUT VALUE>
-3.18

$$$$
>  <COMPOUND>
O=C(N/N=C/c1cc(Br)ccc1O)Nc1ccccc1

>  <MEASUREMENT KIND>
z-score

>  <READOUT VALUE>
-4.87

$$$$
>  <COMPOUND>
COc1ccc2c(c1)sc1nc(-c3ccccc3)cn12

>  <MEASUREMENT KIND>
z-score

>  <READOUT VALUE>
-7.22

$$$$
>  <COMPOUND>
CC1CCc2c(sc3nn[nH]c(=O)c23)C1 (stereo unspecified)

>  <MEASUREMENT KIND>
z-score

>  <READOUT VALUE>
4.24

$$$$
>  <COMPOUND>
O=C(Nc1ccc(Br)cc1)C(c1ccccc1)c1ccccc1

>  <MEASUREMENT KIND>
z-score

>  <READOUT VALUE>
-0.28

$$$$
>  <COMPOUND>
O=C(CSc1ncccn1)NC(=O)c1ccccc1

>  <MEASUREMENT KIND>
z-score

>  <READOUT VALUE>
0.73

$$$$
>  <COMPOUND>
CC(=O)CCc1c(C)c2cccc(C)c2[nH]c1=O

>  <MEASUREMENT KIND>
z-score

>  <READOUT VALUE>
-0.43

$$$$
>  <COMPOUND>
CCOc1ccc(NC2=NCC(=O)N2Cc2cccs2)cc1

>  <MEASUREMENT KIND>
z-score

>  <READOUT VALUE>
4.8

$$$$
>  <COMPOUND>
CC(O)c1nc2ccccc2n1CCOc1ccccc1 (stereo unspecified)

>  <MEASUREMENT KIND>
z-score

>  <READOUT VALUE>
1.64

$$$$
>  <COMPOUND>
Cn1c(CNc2nc3ccccc3n2C)nc2ccccc21

>  <MEASUREMENT KIND>
z-score

>  <READOUT VALUE>
1.15

$$$$
>  <COMPOUND>
CCc1nnc(NC(=O)CCC(=O)NCc2ccccc2OC)s1

>  <MEASUREMENT KIND>
z-score

>  <READOUT VALUE>
4.05

$$$$
>  <COMPOUND>
COc1cccc(-c2cc3nc4c(c(N5CCC6(CC5)OCCO6)n3n2)CCC4)c1

>  <MEASUREMENT KIND>
z-score

>  <READOUT VALUE>
-3.88

$$$$
>  <COMPOUND>
O=C(NCCN1CCCC1)C1(S(=O)(=O)c2ccc(Cl)cc2)CC1

>  <MEASUREMENT KIND>
z-score

>  <READOUT VALUE>
3.06

$$$$
